# Read-out: Interleukin-1 alpha (IL1a), IL1A (gene 3552)
# TEST_SUMMARY: BSK_KF3CT_IL1a: BioMAP Diversity Plus: KF3CT Assay for Interleukin-1 alpha (IL1a) Biomarker Activity (AID 2283070)
# EXPERIMENTAL_CONDITIONS: primary human keratinocytes with fibroblasts; actives raise or lower the signal
Activity calls are given as the source filed them. Rule for the calls: active = hit-call score of the fitted dose curve at least 0.9, where 1 is the maximum; inactive = score below 0.9.
OBSERVATION_TYPE: AC50

Consider the worked cases shown below.
| STRUCTURE_NOTATION | AC50 |
| --- | --- |
| Cc1ccc2oc(CN(Cc3ccccc3)C(=O)Nc3c(F)cc(F)cc3F)c(-c3ccc(Cl)cc3)c2c1 | inactive |
| CCCCCCCCCCCO | inactive |
| CN(C)c1ccc(C(=C2C=CC(=[N+](C)C)C=C2)c2ccc(N(C)C)cc2)cc1 | 2.54 µM (active) |
| CCN(Cc1cccc(S(=O)(=O)O)c1)c1ccc(C(=C2C=CC(=[N+](CC)Cc3cccc(S(=O)(=O)O)c3)C=C2)c2ccccc2S(=O)(=O)[O-])cc1 | inactive |
| Oc1ccc2ccccc2c1 | inactive |

Look up AC50: `Cc1oc2c(NC(=O)c3c(Cl)cccc3Cl)cccc2c1C(C)(C)O`
inactive

Need AC50 of `CO[C@H]1/C=C/O[C@@]2(C)Oc3c(C)c(O)c4c(O)c(c(/C=N/N5CCN(C)CC5)c(O)c4c3C2=O)NC(=O)/C(C)=C\C=C\[C@H](C)[C@H](O)[C@@H](C)[C@@H](O)[C@@H](C)[C@H](OC(C)=O)[C@@H]1C` , thanks.
inactive

What does the data say about its AC50? Entry: `CC1=CC(=O)/C(=C(/C)O)C(=O)O1`
inactive

Recorded AC50 for `CC(C)(C)c1csc(-c2cc3cc(OCc4ccccc4CC(=O)O)ccc3o2)n1` , please?
33 µM (active)
